Catalogue of pIC50 readings, one per entry.
molecular target: Sodium-dependent noradrenaline transporter (Homo sapiens, UniProt P23975); assay: Inhibition of [3H]-NE reuptake in human NET transfected into HEK293 cells by liquid scintillation counting method
Sequence (P23975 whole entry): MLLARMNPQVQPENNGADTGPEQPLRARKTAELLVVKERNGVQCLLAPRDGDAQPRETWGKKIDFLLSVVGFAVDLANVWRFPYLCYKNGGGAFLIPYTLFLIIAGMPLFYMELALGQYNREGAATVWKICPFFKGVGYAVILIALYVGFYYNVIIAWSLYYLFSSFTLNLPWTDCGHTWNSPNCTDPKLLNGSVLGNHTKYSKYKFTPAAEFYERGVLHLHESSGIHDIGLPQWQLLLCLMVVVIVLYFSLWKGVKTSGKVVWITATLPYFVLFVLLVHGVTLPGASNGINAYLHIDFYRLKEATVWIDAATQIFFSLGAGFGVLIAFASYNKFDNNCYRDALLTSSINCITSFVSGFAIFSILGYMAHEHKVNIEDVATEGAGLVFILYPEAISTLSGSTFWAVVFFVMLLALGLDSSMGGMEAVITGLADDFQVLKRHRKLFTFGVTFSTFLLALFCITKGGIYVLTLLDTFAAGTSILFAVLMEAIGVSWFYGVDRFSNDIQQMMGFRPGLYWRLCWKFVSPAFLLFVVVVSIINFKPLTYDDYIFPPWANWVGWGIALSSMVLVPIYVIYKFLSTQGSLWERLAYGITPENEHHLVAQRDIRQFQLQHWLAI
pIC50: −log10 of the molar value.
outcome measure: pIC50

- smiles input: "Brc1ccc(N2CCN(CCCN3CCC(Cc4ccccc4)CC3)CC2)cc1"
  tested system: "Sodium-dependent noradrenaline transporter (Homo sapiens, UniProt P23975)"
  result value: 6.21
- smiles input: "Brc1ccc(N2CCN(CCN3CCC(Cc4ccccc4)CC3)CC2)cc1"
  tested system: "Sodium-dependent noradrenaline transporter (Homo sapiens, UniProt P23975)"
  result value: 5.68
- smiles input: "Clc1cccc(N2CCN(CCCN3CCC(Cc4ccccc4)CC3)CC2)c1"
  tested system: "Sodium-dependent noradrenaline transporter (Homo sapiens, UniProt P23975)"
  result value: 6.42
- smiles input: "Clc1ccc(N2CCN(CCCN3CCC(Cc4ccccc4)CC3)CC2)c(Cl)c1"
  tested system: "Sodium-dependent noradrenaline transporter (Homo sapiens, UniProt P23975)"
  result value: 6.12
- smiles input: "Clc1ccc(N2CCN(CCN3CCC(Cc4ccccc4)CC3)CC2)c(Cl)c1"
  tested system: "Sodium-dependent noradrenaline transporter (Homo sapiens, UniProt P23975)"
  result value: 5.60
- smiles input: "c1ccc(CC2CCN(CCCN3CCN(c4ccccc4)CC3)CC2)cc1"
  tested system: "Sodium-dependent noradrenaline transporter (Homo sapiens, UniProt P23975)"
  result value: 6.22
- smiles input: "Cc1cccc(C)c1N1CCN(CCCN2CCC(Cc3ccccc3)CC2)CC1"
  tested system: "Sodium-dependent noradrenaline transporter (Homo sapiens, UniProt P23975)"
  result value: 5.97
- smiles input: "COc1ccccc1N1CCN(CCCN2CCC(Cc3ccccc3)CC2)CC1"
  tested system: "Sodium-dependent noradrenaline transporter (Homo sapiens, UniProt P23975)"
  result value: 6.05
- smiles input: "Clc1cccc(N2CCN(CCCN3CCC(Cc4ccccc4)CC3)CC2)c1Cl"
  tested system: "Sodium-dependent noradrenaline transporter (Homo sapiens, UniProt P23975)"
  result value: 6.25
- smiles input: "Clc1ccc(N2CCN(CCCN3CCC(Cc4ccccc4)CC3)CC2)cc1"
  tested system: "Sodium-dependent noradrenaline transporter (Homo sapiens, UniProt P23975)"
  result value: 6.28
- smiles input: "FC(F)(F)c1ccc(N2CCN(CCCN3CCC(Cc4ccccc4)CC3)CC2)cc1"
  tested system: "Sodium-dependent noradrenaline transporter (Homo sapiens, UniProt P23975)"
  result value: 5.93
